Numbers sourced from patent US7666875B2.

Property: pIC50; scope: individual compounds
Molecular target: human T-bet (Homo sapiens, UniProt Q9UL17)
Construct: expressed in transfected cells; host or cells: engineered HEK cells (HEKT-bet)
Sequence (Q9UL17 whole entry): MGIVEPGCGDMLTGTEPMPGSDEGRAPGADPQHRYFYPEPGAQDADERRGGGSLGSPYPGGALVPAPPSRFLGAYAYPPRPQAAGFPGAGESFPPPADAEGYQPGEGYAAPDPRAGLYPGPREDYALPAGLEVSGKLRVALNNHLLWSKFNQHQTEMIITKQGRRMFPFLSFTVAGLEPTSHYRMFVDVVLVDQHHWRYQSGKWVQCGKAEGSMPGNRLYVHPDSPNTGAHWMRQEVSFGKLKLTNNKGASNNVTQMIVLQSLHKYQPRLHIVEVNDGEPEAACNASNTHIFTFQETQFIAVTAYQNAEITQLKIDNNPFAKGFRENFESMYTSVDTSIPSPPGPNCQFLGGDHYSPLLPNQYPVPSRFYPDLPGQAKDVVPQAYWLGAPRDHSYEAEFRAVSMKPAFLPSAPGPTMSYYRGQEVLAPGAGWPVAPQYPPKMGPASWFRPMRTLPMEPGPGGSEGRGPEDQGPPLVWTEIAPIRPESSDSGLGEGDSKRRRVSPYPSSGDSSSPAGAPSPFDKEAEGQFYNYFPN
Experiment: HEKT-bet-luc assay (T-bet dependent luciferase reporter in engineered HEK cells)
Type: cell-based
Details: Table 4; HEKT-bet cells, compound 24 hours; IC50 normalized to reference ER-213038; read-out: IC50
Protocol: HEKT-bet-luc assay: This assay measures a T-bet dependent reporter (luciferase) activity in engineered HEK cells that express a human T-bet and a T-box responsive element driving luciferase reporter. HEKT-bet cells were plated at 2×10^4/well in 96-well plate and compound was added into cell culture for 24 hours. Luciferase activity was measured by adding 50 μl of Steady-Glo reagent (Promega) and samples were read in Victor V reader (PerkinElmer). […]
For clarity, pIC50 is expressed as the negative log10 of concentration in mol/L.

Which pIC50 value belongs to CCN1C(=O)N(CCCOc2ccccc2)C(=O)C12CCN(Cc1cc(OC)cc(OC)c1)CC2 [Example 217] ?
6.46
